Each record here notes measured IC50.
- test-target: human recombinant COX-2 (Homo sapiens)
- Sequence (P35354 18-604): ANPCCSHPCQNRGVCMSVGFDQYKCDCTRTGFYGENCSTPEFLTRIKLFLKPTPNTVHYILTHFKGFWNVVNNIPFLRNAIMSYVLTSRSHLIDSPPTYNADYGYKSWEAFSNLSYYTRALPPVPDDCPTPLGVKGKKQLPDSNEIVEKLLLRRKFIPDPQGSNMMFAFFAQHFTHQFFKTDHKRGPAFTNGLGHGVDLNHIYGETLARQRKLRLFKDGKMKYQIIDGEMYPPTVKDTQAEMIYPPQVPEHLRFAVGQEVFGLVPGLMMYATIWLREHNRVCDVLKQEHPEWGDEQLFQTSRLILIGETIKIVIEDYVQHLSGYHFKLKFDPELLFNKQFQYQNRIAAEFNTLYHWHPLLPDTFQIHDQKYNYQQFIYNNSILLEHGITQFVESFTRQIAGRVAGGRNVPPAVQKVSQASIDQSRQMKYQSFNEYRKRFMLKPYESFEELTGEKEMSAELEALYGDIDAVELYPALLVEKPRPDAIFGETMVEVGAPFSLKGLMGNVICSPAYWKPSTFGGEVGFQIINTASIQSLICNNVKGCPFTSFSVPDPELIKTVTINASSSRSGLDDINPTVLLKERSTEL
- experiment-summary: In vitro COX-2 inhibition, enzyme immunoassay
quantity-kind: IC50 (µM)

compound="CC(=O)C(=NO)C(=O)Nc1nccs1 [Compound 2]" recorded_value=0.11
compound="C/C(=C/C(=O)Nc1nccs1)Nc1ccccc1 [Compound 23a]" recorded_value=0.71
compound="CC(=O)c1c(C)[nH]c(C(=O)Nc2nccs2)c1C [Compound 5b]" recorded_value=0.24
compound="CC(=O)C(C(C)=O)C(=O)Nc1nccs1 [Compound 17]" recorded_value=0.09
compound="Cc1cc(O)n(-c2nccs2)n1 [Compound 7]" recorded_value=0.63
compound="CCOC(=O)c1c(C)[nH]c(C(=O)Nc2nccs2)c1C [Compound 5a]" recorded_value=0.1
compound="C/C(=C/C(=O)Nc1nccs1)Nc1ccc(Cl)cc1 [Compound 23c]" recorded_value=0.61
compound="COc1ccc(N/C(C)=C\\C(=O)Nc2nccs2)cc1 [Compound 23b]" recorded_value=0.56
compound="CCOC(=O)CCC(=O)Nc1nccs1 [Compound 11]" recorded_value=0.21

Each recorded value in this set is attributed to paper PMC9056166.
